# TEST: Solubility in water
# Format: physicochemical
# ASSAY_SETUP: in water at 10° C.; read-out: maximum solubility of sodium 4-phenylbutyrate
PROPERTY_NAME: solubility
# do not omit the unit; it follows the number

Would you mind telling me what solubility value was observed for O=C([O-])CCCc1ccccc1.[Na+] [Sodium 4-phenylbutyrate] ?
250 mg/mL

Measured values drawn from patent US20040152784A1 for this set.
